# assayed.target: cGMP-specific 3',5'-cyclic phosphodiesterase (Homo sapiens, UniProt O76074)
# experimental.protocol: Inhibition of full length recombinant human N-terminal GST-tagged PDE5A1 expressed in baculovirus infected sf9 cells at 100 nM using FAM-cyclic-3',5-GMP as substrate after 1 hr by fluorescence polarization assay relative to control
Tick yes if inhibition is 40% or greater. Tick no if inhibition is less than 40%.

compound: Cc1ccc(C2c3[nH]c4ccccc4c3CCN2c2ccc(-c3ccccn3)cn2)s1 (centres undefined)
qualitative.label: no
//
compound: c1ccc(-c2ccc(N3CCc4c([nH]c5ccccc45)C3c3cc4ccccc4o3)nc2)nc1 (centres undefined)
qualitative.label: no
//
compound: CCc1ccc(C(=O)c2[nH]c3ccccc3c2CCNc2ccc(-c3ccccn3)cn2)s1
qualitative.label: no
//
compound: CCNC(=O)N1[C@H](c2ccc(CC)o2)c2[nH]c3ccccc3c2C[C@@H]1C(=O)OC
qualitative.label: yes
//
compound: CCN1C(=O)[C@@H]2Cc3c([nH]c4ccccc34)[C@@H](c3ccc(C)o3)N2C1=O
qualitative.label: yes
//
compound: CCCc1ccc(C2c3[nH]c4ccccc4c3CCN2c2ccc(-c3ccccn3)cn2)s1 (centres undefined)
qualitative.label: no
//
compound: CCc1ccc(C(=O)c2[nH]c3ccccc3c2CCNc2ccc(-c3ccccn3)cn2)o1
qualitative.label: no
//
compound: COc1cccc2cc(C(=O)c3[nH]c4ccccc4c3CCNc3ccc(-c4ccccn4)cn3)oc12
qualitative.label: no
